B1: Pre-mRNA-processing factor 40 homolog B, residues 274 to 332; numbered along this chain, Q6NWY9 (parent)
chain: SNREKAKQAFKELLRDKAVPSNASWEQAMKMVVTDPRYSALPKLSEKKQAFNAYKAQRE

Variants of: B1
ASSAY TEXT: abundance fitness (aPCA) (normalised: wild type 0, dead -1); higher = more abundant; growth selection in yeast, the domain comes from the species named
ASSAY SETUP: Homo sapiens
Items are presented alongside their recorded abundance fitness.
READOUT TYPE: abundance fitness

[[record]]
mutant_id = "Q27F"
readout_type = "abundance fitness"
experimental_value = -0.884

[[record]]
mutant_id = "N52H"
readout_type = "abundance fitness"
experimental_value = -0.053

[[record]]
mutant_id = "L13A"
readout_type = "abundance fitness"
experimental_value = -0.327

[[record]]
mutant_id = "L13K"
readout_type = "abundance fitness"
experimental_value = -0.388

[[record]]
mutant_id = "S24D"
readout_type = "abundance fitness"
experimental_value = -0.355

[[record]]
mutant_id = "R37G"
readout_type = "abundance fitness"
experimental_value = -0.577

[[record]]
mutant_id = "T34I"
readout_type = "abundance fitness"
experimental_value = -0.611

[[record]]
mutant_id = "E59M"
readout_type = "abundance fitness"
experimental_value = 0.167

[[record]]
mutant_id = "V33L"
readout_type = "abundance fitness"
experimental_value = -0.135

[[record]]
mutant_id = "L13F"
readout_type = "abundance fitness"
experimental_value = -0.668

[[record]]
mutant_id = "N2Q"
readout_type = "abundance fitness"
experimental_value = 0.037

[[record]]
mutant_id = "A28T"
readout_type = "abundance fitness"
experimental_value = -0.299

[[record]]
mutant_id = "N52G"
readout_type = "abundance fitness"
experimental_value = -0.282

[[record]]
mutant_id = "K5E"
readout_type = "abundance fitness"
experimental_value = -0.049

[[record]]
mutant_id = "A50S"
readout_type = "abundance fitness"
experimental_value = -0.382

[[record]]
mutant_id = "R58Y"
readout_type = "abundance fitness"
experimental_value = 0.1

[[record]]
mutant_id = "A23H"
readout_type = "abundance fitness"
experimental_value = -0.591

[[record]]
mutant_id = "E26H"
readout_type = "abundance fitness"
experimental_value = -0.237

[[record]]
mutant_id = "P20N"
readout_type = "abundance fitness"
experimental_value = -0.587

[[record]]
mutant_id = "A9G"
readout_type = "abundance fitness"
experimental_value = -0.292

[[record]]
mutant_id = "S1Y"
readout_type = "abundance fitness"
experimental_value = 0.089

[[record]]
mutant_id = "Q57D"
readout_type = "abundance fitness"
experimental_value = 0.158

[[record]]
mutant_id = "E59K"
readout_type = "abundance fitness"
experimental_value = 0.055

